# MEASUREMENT PROTOCOL: Single dose pharmacokinetics of oral nanatinostat in patients
# Type: in vivo, humans
# RUN PARAMETERS: human, serum, 10 mg, B = 10 mg VRx-3996 p.o. and 450 mg Valganciclovir p.o., single dose, read-out: Tmax (h), median (range)
OBSERVATION TYPE: Tmax (h)
Unit h implied. Number only.

Request: Determine from records and report Tmax for O=C(NO)c1cnc(N2C[C@@H]3[C@H](C2)[C@H]3NCc2ccc3cc(F)ccc3n2)nc1
Response: 2

* * *

# SUBJECT OF TEST: HDAC7 (Homo sapiens, UniProt Q8WUI4)
# Sequence (Q8WUI4 1-952): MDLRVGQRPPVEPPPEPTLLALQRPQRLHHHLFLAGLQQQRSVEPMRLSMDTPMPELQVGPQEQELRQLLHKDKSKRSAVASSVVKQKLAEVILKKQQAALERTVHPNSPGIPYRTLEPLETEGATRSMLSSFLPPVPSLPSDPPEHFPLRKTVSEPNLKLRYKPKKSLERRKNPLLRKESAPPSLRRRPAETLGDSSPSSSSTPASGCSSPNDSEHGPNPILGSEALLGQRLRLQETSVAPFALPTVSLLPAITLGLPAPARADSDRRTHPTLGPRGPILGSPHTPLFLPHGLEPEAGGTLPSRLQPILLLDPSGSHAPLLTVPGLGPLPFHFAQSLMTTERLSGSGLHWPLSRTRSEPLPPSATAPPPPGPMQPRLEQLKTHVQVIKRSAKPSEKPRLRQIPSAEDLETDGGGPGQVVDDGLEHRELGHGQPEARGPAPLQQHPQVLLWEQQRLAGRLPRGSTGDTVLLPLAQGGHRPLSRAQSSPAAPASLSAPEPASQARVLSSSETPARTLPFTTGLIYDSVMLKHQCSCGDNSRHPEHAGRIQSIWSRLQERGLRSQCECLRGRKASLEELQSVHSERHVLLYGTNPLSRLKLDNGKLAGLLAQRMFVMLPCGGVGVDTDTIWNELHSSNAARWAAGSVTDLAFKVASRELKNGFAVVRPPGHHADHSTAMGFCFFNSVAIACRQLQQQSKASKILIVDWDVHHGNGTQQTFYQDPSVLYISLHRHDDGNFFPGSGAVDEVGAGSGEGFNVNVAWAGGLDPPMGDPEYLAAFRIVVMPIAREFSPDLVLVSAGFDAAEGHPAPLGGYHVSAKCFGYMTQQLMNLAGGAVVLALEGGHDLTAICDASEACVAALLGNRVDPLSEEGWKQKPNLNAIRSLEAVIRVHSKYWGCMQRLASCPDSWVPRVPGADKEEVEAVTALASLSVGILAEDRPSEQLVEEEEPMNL
# MEASUREMENT PROTOCOL: in vitro HDAC inhibition assay (fluorescence)
# Format: biochemical
# RUN PARAMETERS: 1 h pre-incubation; 2 μM HDAC Substrate Class 2a; read-out: IC50 (μM) HDAC7
OBSERVATION TYPE: IC50 (µM)
Unit µM implied. Number only.

Request: Determine from records and report IC50 for O=C(NO)c1cnc(N2C[C@@H]3[C@H](C2)[C@H]3NCc2ccc3cc(F)ccc3n2)nc1 [Nanatinostat]
Response: 1.6

* * *

# MEASUREMENT PROTOCOL: Single dose pharmacokinetics of oral nanatinostat in patients
# Type: in vivo, humans
# RUN PARAMETERS: human, serum, 5 mg, A = 5 mg VRx-3996 p.o. and 450 mg Valganciclovir p.o., single dose, read-out: Half-Life (h), geometric mean (converted)
OBSERVATION TYPE: half-life (h)
Unit h implied. Number only.

Request: Determine from records and report half-life for O=C(NO)c1cnc(N2C[C@@H]3[C@H](C2)[C@H]3NCc2ccc3cc(F)ccc3n2)nc1 [Nanatinostat]
Response: 2.18

* * *

# MEASUREMENT PROTOCOL: Single dose pharmacokinetics of oral nanatinostat in patients
# Format: in vivo, humans
# RUN PARAMETERS: human, serum, 10 mg, C = 10 mg VRx-3996 p.o. and 900 mg Valganciclovir p.o., single dose, read-out: AUC (ng-h/mL), geometric mean
OBSERVATION TYPE: AUC
# output: number + unit

Request: Determine from records and report AUC for O=C(NO)c1cnc(N2C[C@@H]3[C@H](C2)[C@H]3NCc2ccc3cc(F)ccc3n2)nc1
Response: 322 ng·h/mL

* * *

# MEASUREMENT PROTOCOL: Single dose pharmacokinetics of oral nanatinostat in patients
# Assay type: in vivo, humans
# RUN PARAMETERS: human, serum, 5 mg, A = 5 mg VRx-3996 p.o. and 450 mg Valganciclovir p.o., single dose, read-out: Cmax (ng/mL), geometric mean
OBSERVATION TYPE: Cmax

Request: Determine from records and report Cmax for O=C(NO)c1cnc(N2C[C@@H]3[C@H](C2)[C@H]3NCc2ccc3cc(F)ccc3n2)nc1
Response: 18.5 ng/mL

* * *

# MEASUREMENT PROTOCOL: Single dose pharmacokinetics of oral nanatinostat in patients
# Assay type: in vivo, humans
# RUN PARAMETERS: human, serum, 10 mg, B = 10 mg VRx-3996 p.o. and 450 mg Valganciclovir p.o., single dose, read-out: AUClast (ng-h/mL), geometric mean
OBSERVATION TYPE: AUC(0-t) (ng·h/mL)
Unit ng·h/mL implied. Number only.

Request: Determine from records and report AUC(0-t) for O=C(NO)c1cnc(N2C[C@@H]3[C@H](C2)[C@H]3NCc2ccc3cc(F)ccc3n2)nc1
Response: 165

* * *

# MEASUREMENT PROTOCOL: Single dose pharmacokinetics of oral nanatinostat in patients
# Type: in vivo, humans
# RUN PARAMETERS: human, serum, 10 mg, C = 10 mg VRx-3996 p.o. and 900 mg Valganciclovir p.o., single dose, read-out: Half-Life (h), geometric mean (converted)
OBSERVATION TYPE: half-life
# output: number + unit

Request: Determine from records and report half-life for O=C(NO)c1cnc(N2C[C@@H]3[C@H](C2)[C@H]3NCc2ccc3cc(F)ccc3n2)nc1
Response: 1.67 h

* * *

# SUBJECT OF TEST: HDAC9 (Homo sapiens)
# Sequence (Q9UKV0 whole entry): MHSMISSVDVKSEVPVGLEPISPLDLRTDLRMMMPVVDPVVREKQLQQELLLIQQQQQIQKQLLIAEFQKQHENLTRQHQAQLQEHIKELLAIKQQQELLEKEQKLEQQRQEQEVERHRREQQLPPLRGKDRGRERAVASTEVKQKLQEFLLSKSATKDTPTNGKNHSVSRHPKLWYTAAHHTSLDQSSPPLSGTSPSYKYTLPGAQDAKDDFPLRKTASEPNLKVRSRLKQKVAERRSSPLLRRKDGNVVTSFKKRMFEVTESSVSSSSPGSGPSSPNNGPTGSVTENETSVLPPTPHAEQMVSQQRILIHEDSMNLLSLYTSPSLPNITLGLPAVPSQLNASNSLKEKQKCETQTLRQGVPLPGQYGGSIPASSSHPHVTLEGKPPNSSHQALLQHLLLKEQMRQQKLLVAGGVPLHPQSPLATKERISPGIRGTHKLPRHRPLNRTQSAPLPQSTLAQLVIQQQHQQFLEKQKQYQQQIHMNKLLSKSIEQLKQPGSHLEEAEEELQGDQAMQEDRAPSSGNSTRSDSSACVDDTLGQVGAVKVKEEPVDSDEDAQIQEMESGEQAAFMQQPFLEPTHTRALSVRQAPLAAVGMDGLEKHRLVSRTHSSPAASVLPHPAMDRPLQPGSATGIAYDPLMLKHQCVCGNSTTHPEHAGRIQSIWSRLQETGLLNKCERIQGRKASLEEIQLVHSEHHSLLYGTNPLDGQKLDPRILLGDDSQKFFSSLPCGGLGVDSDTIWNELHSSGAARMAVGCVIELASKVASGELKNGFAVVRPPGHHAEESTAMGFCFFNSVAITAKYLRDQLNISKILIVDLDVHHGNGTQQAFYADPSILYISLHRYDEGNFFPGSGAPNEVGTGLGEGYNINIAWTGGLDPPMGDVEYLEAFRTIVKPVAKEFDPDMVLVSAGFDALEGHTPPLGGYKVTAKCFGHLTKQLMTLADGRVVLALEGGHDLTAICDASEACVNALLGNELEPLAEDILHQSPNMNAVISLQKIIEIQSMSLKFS
# MEASUREMENT PROTOCOL: in vitro HDAC inhibition assay (fluorescence)
# Format: biochemical
# RUN PARAMETERS: 1 h pre-incubation; 2 μM HDAC Substrate Class 2a; read-out: IC50 (μM) HDAC9
OBSERVATION TYPE: IC50 (µM)
Unit µM implied. Number only.

Request: Determine from records and report IC50 for O=C(NO)c1cnc(N2C[C@@H]3[C@H](C2)[C@H]3NCc2ccc3cc(F)ccc3n2)nc1
Response: 0.44

* * *

# SUBJECT OF TEST: HDAC5 (Homo sapiens)
# Sequence (Q9UQL6 whole entry): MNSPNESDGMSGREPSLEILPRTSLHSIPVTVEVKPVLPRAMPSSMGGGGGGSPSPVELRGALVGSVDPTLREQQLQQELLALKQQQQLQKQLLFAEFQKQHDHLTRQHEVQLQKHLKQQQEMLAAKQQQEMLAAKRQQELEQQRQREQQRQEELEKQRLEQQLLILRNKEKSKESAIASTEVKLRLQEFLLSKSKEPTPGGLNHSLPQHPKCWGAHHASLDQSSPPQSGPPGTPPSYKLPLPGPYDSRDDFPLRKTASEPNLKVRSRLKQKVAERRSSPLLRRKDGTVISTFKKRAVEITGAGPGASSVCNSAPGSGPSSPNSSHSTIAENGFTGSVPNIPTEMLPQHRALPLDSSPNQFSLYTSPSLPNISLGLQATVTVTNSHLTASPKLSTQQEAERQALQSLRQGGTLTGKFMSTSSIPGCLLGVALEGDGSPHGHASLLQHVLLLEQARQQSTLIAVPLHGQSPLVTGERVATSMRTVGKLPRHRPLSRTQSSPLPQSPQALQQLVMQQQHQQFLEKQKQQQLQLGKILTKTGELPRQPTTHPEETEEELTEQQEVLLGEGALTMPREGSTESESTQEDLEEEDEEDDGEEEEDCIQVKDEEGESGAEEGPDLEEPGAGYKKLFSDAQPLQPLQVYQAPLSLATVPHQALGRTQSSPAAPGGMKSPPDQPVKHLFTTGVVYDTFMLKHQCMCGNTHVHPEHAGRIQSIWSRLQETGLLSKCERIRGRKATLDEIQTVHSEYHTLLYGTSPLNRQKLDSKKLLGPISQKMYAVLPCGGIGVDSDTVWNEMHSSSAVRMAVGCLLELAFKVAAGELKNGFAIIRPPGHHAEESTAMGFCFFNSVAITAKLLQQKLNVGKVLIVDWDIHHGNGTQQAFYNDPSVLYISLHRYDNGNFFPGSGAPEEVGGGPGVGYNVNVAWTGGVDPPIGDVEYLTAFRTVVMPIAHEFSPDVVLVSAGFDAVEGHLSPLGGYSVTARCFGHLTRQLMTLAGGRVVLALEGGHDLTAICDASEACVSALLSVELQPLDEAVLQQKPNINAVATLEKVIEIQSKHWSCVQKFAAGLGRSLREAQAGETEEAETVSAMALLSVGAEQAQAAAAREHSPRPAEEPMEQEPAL
# MEASUREMENT PROTOCOL: in vitro HDAC inhibition assay (fluorescence)
# Format: biochemical
pIC50: −log10 of the molar value.
OBSERVATION TYPE: pIC50

Request: Give measured pIC50 for C/C=C1\NC(=O)[C@H]2CSSCC/C=C/[C@H](CC(=O)N[C@H](C(C)C)C(=O)N2)OC(=O)[C@H](C(C)C)NC1=O (HDAC5 (Homo sapiens)).
Response: < 4.00

* * *

# MEASUREMENT PROTOCOL: Single dose pharmacokinetics of oral nanatinostat in patients
# Type: in vivo, humans
# RUN PARAMETERS: human, serum, 10 mg, C = 10 mg VRx-3996 p.o. and 900 mg Valganciclovir p.o., single dose, read-out: Cmax (ng/mL), geometric mean
OBSERVATION TYPE: Cmax (ng/mL)
Unit ng/mL implied. Number only.

Request: Determine from records and report Cmax for O=C(NO)c1cnc(N2C[C@@H]3[C@H](C2)[C@H]3NCc2ccc3cc(F)ccc3n2)nc1
Response: 78.9

Numbers sourced from patent US10953011B2.
